assay: Rat intraduodenal bioavailability determination (Method 3); format: in vivo, Sprague-Dawley (SD) rats; details: male, Sprague-Dawley, intravenous 20 mg/kg, Phosphate pH 7.4, solution, AF1 titrated in plasma
reported endpoint: AUC(0-inf)
Kindly format the answer as number then unit.

**Query** Give me measured AUC(0-inf), please, for this compound: NC(=O)[C@@H]1CC[C@@H]2CN1C(=O)N2OC(F)(F)C(=O)[O-].[Na+] [AF1]
**Result** 12500 ng·h/mL

====

test: Hydrolysis kinetics in buffers at room temperature by 19F-NMR, 1 mg/ml (Method 9); type: physicochemical; conditions: Phosphate 10 mM pH 6.0
reported endpoint: Hydrolysis at 1 mg/ml at room Temperature (NMR) T10 (10% degradation time) (h)
API: value field is a number in h; no unit string.

- COCC(C)(COC)OC(=O)C(F)(F)ON1C(=O)N2C[C@H]1CC[C@H]2C(N)=O: 1.5
- COCCOCC(C)(C)OC(=O)C(F)(F)ON1C(=O)N2C[C@H]1CC[C@H]2C(N)=O: 2.3
- COCC1(OC(=O)C(F)(F)ON2C(=O)N3C[C@H]2CC[C@H]3C(N)=O)CCOCC1: 2
- CC1(OC(=O)C(F)(F)ON2C(=O)N3C[C@H]2CC[C@H]3C(N)=O)CCOCC1: 2.7

In the following, a different compound is considered.
**Query** Give me measured Hydrolysis at 1 mg/ml at room Temperature (NMR) T10 (10% degradation time), please, for this compound: COCC(C)(C)OC(=O)C(F)(F)ON1C(=O)N2C[C@H]1CC[C@H]2C(N)=O
**Result** 2
